Readings of protein stability index for the listed sequences
- MEASUREMENT_PROTOCOL: protein stability index of a GFP-peptide fusion (GPS, HEK-293T) (PSI 1-6); higher = more stable;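 note: 24-mer peptide tiles fused after GFP, lentivirally expressed, FACS-sorted into six equal bins by GFP/DsRed ratio, decoded by Illumina sequencing, PSI is the read-weighted mean bin number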
- RUN_PARAMETERS: treatment: MLN4924 1 uM, 8 h; c terminus: a fixed tail appended
Form rule: numeric answer, no unit written next to it.

Some solved entries appear below for comparison.
Input: # lookup: protein stability index of YIFRVANHQKDLFRRTDGRCLIWG [DHCR7]
Output: 2.35

Input: # lookup: protein stability index of EQTFSPAKSLSFRKGELVTASKAI [ADD1]
Output: 4.14

Input: # lookup: protein stability index of FKAEVDPLSDKGTTPLQLAIIRER [ASB7]
Output: 3.85

Continuing:
Input: # lookup: protein stability index of ETAIADAEQRGDNALKDARAKLDE [KRT71]
Output: 5.41

====

- MEASUREMENT_PROTOCOL: protein stability index of a GFP-peptide fusion (GPS, HEK-293T) (PSI 1-6); higher = more stable
- RUN_PARAMETERS: treatment: MLN4924 1 uM, 8 h; c terminus: a fixed tail appended
Please use the following protein stability index ranges when assigning a class: A (below 3), B (3 to below 4), C (4 or more)

Input: // return the class label for PFSEFFKLRFNRKKKGMYRKAITE [PWWP2B]
Output: A

Input: // return the class label for LELIEPLIKFQVGLKKLNLHEEEH [VDR]
Output: A

Input: // return the class label for PGNGTHGLSPEEKEQLSNDRETQE [ELOA2]
Output: C

Continuing:
Input: // return the class label for WEKKPFSEDVNWGYEKRNLARVPK [CHGB]
Output: B

Input: // return the class label for TCCESTQRSVSDVASGSTPAPALC [IRX6]
Output: C

Input: // return the class label for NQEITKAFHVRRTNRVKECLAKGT [RHOBTB2]
Output: B

====

Readings of protein stability index for the listed sequences
- MEASUREMENT_PROTOCOL: protein stability index of a GFP-peptide fusion (GPS, HEK-293T) (PSI 1-6); higher = more stable
- RUN_PARAMETERS: treatment: DMSO; c terminus: a fixed tail appended
Form rule: numeric answer, no unit written next to it.

Input: # lookup: protein stability index of DFIHRHCQDQNVPVENFFVKCNGA [SDE2]
Output: 2.83

Input: # lookup: protein stability index of EHYWEVRYEPDSKAFGVGVAYRSL [FSD1]
Output: 2.06

Input: # lookup: protein stability index of VYEDETKVVHAVDGTAENGIHPLS [PALM]
Output: 4.88

Input: # lookup: protein stability index of RRTRGPVERAAAAAAAAAGGDAGH [C6orf223]
Output: 4.91

Input: # lookup: protein stability index of NQAGFTLHSAIYAARPDVKCVVHI [ADD1]
Output: 3.1

Input: # lookup: protein stability index of VGLIRNLALCPANHAPLREQGAIP [CTNNB1]
Output: 3.21

Input: # lookup: protein stability index of RTVKLIRYVSNWDFFIVGCEVIFC [PKD2L1]
Output: 2.79

Input: # lookup: protein stability index of MTVVRMDASVQPGPFRTLLQFLYT [RHOBTB1]
Output: 2.41

Input: # lookup: protein stability index of YDKNIIHKTAGKRYVYRFVCDLQS [ETS1]
Output: 2.11

Input: # lookup: protein stability index of SVVRRCVKVLAGQEYAAKIINTKK [CAMK2A]
Output: 2.72

Continuing:
Input: # lookup: protein stability index of GYSWSMGAYKSSTICYCPEKGTWT [KLHL14]
Output: 2.03

Input: # lookup: protein stability index of MLEASEWATIEGLVELLQPFKQVA [ZBED1]
Output: 2.23

Input: # lookup: protein stability index of LRKGFSCVKNELLPSHPLELSEKN [POMP]
Output: 3.61

Input: # lookup: protein stability index of QPGLSFLNLGSGTGYLSSMVGLIL [PCMTD2]
Output: 2.12

Input: # lookup: protein stability index of TFFPVALKKHGPICQKTATKKRKT [ZC2HC1A]
Output: 3.24

Input: # lookup: protein stability index of GFDTDGLSSAVWPGGETEALTRLE [CRY1]
Output: 4.54

Input: # lookup: protein stability index of WAEAECQRQQLPVTFGNKQKVLGK [BTBD1]
Output: 4.42

Input: # lookup: protein stability index of KVTGVEYHNAGTQTVPKRIPERLS [IQUB]
Output: 4.22

Input: # lookup: protein stability index of PLFYPGIRAGRKNAAPLTIRPPTD [TRIM39]
Output: 3.56

====

- MEASUREMENT_PROTOCOL: protein stability index of a GFP-peptide fusion (GPS, HEK-293T) (PSI 1-6); higher = more stable
- RUN_PARAMETERS: treatment: DMSO; c terminus: a fixed tail appended
Readings of protein stability index for the listed sequences
Form rule: numeric answer, no unit written next to it.

Input: # lookup: protein stability index of RTLRNFINDEMQAKGIPQRAPPKR [PCMTD1]
Output: 4.06

Input: # lookup: protein stability index of KVFIPSLFLSHVLALGLGIYIGKR [BNIP3L]
Output: 2.34

Input: # lookup: protein stability index of RLLSHDQVAMPYQWEYPYLLSILP [JAGN1]
Output: 2.15

Input: # lookup: protein stability index of WNFEITNQSFNIVDIKPANMEELT [PPP2R2B]
Output: 3.4

Input: # lookup: protein stability index of AQRLRPQDEPRQGCQPEDRRRRII [KCNG1]
Output: 4.92

Input: # lookup: protein stability index of PLCNFNITESFTELARIVLLRHGM [RAB40B]
Output: 2.8

Input: # lookup: protein stability index of EEIKFYELGEEAMEKFREDEGFIK [KCNA1]
Output: 4.71

Input: # lookup: protein stability index of KEMEQLFSQYGRIITSRILVDQVT [ELAVL3]
Output: 2.94

Input: # lookup: protein stability index of IVDQVLEEDFDSEQLSVLASCLQE [INTS3]
Output: 4.16

Input: # lookup: protein stability index of ILILEGGYNLTSISESMAACTRSL [HDAC6]
Output: 2.97

Continuing:
Input: # lookup: protein stability index of DLEAKEVTPRTALLTWTEPPVRPA [TNXB]
Output: 4.61

Input: # lookup: protein stability index of QAIIESCSRQFPEFQERARKRIRT [NOL4L]
Output: 3.69

====

- MEASUREMENT_PROTOCOL: protein stability index of a GFP-peptide fusion (GPS, HEK-293T) (PSI 1-6); higher = more stable
- RUN_PARAMETERS: treatment: MLN4924 1 uM, 8 h; c terminus: a fixed tail appended
Cut-off 4 on protein stability index, inclusive. At or above means y; below means n.

Input: Decide: is the reported value of protein stability index for SFHPLQYIGFYGKETTNTCILKCN [PDS5B] equal to or greater than 4?
Output: n

Continuing:
Input: Decide: is the reported value of protein stability index for PVASSGEFFGSASQPAVELVSGSQ [CLINT1] equal to or greater than 4?
Output: y

Input: Decide: is the reported value of protein stability index for PLRSSLPISLQATPATPATLSASS [TFE3] equal to or greater than 4?
Output: y

Input: Decide: is the reported value of protein stability index for IVDQVLEEDFDSEQLSVLASCLQE [INTS3] equal to or greater than 4?
Output: y

Input: Decide: is the reported value of protein stability index for ATRAMGLLNTLSLAFVGGLPLAYQ [TMEM175] equal to or greater than 4?
Output: n

====

Readings of protein stability index for the listed sequences
- MEASUREMENT_PROTOCOL: protein stability index of a GFP-peptide fusion (GPS, HEK-293T) (PSI 1-6); higher = more stable
- RUN_PARAMETERS: treatment: DMSO; c terminus: a fixed tail appended
Form rule: numeric answer, no unit written next to it.

Input: # lookup: protein stability index of SLLVTELGSSRTPETVRMVLSNME [IMPA1]
Output: 3.15

Input: # lookup: protein stability index of SDWFNFHGHMCIAFELLGKNTFEF [CLK3]
Output: 3

Continuing:
Input: # lookup: protein stability index of DAERDGVKVPTTLAEYCVKTKAPA [CDC34]
Output: 5.13

Input: # lookup: protein stability index of RAPQGCSGVDECARQEGLTFFGTE [PBXIP1]
Output: 4.01

====

- MEASUREMENT_PROTOCOL: protein stability index of a GFP-peptide fusion (GPS, HEK-293T) (PSI 1-6); higher = more stable
- RUN_PARAMETERS: treatment: DMSO; c terminus: a fixed tail appended
Cut-off 3 on protein stability index, inclusive. At or above means met; below means not met.

These recorded examples may help you get a feel for the data.
Input: Decide: is the reported value of protein stability index for LRSKLCSLYENDCIFDKFECVWNG [PPP2R2B] equal to or greater than 3?
Output: not met

Input: Decide: is the reported value of protein stability index for VNIMRTYTYEKLLWTTSRVLKVLS [CTNNB1] equal to or greater than 3?
Output: not met

Input: Decide: is the reported value of protein stability index for VSWFGSPTTSFLSISKLSPFSEFF [PWWP2B] equal to or greater than 3?
Output: not met

Continuing:
Input: Decide: is the reported value of protein stability index for LIFFGGYGYLPEDKVLGTFEFDET [KLHDC2] equal to or greater than 3?
Output: not met

Input: Decide: is the reported value of protein stability index for TRQLHEKTSQLSYYYMGFYIHSCP [ATE1] equal to or greater than 3?
Output: not met

Input: Decide: is the reported value of protein stability index for LLSCLSKSNNRLKSLSIQYLELDR [FBXO39] equal to or greater than 3?
Output: not met

Input: Decide: is the reported value of protein stability index for NSSQLLLRRHAGLLDGLARRVGIL [SCARA5] equal to or greater than 3?
Output: not met
